# Test system: NCI-H69 (Small Cell Lung Carcinoma)
# Procedure details: combination Emax (second highest fraction inhibited in the dose matrix, 72 h); higher = more inhibition; extreme values may be limits of the assay
Observed property: combination Emax
Just the number, please, no unit after it.

// worked examples, combination Emax included
Compound	Observed property	Data value
C=CCn1c(=O)c2cnc(Nc3ccc(N4CCN(C)CC4)cc3)nc2n1-c1cccc(C(C)(C)O)n1 [AZD1775] + C1CN(CCC1(C(=O)N[C@@H](CCO)C2=CC=C(C=C2)Cl)N)C3=NC=NC4=C3C=CN4 [Capivasertib] (first compound max 3 µM, partner max 3 µM)	combination Emax	0.83
NC1(C(=O)N[C@@H](CCO)c2ccc(Cl)cc2)CCN(c2ncnc3[nH]ccc23)CC1 [Capivasertib] + CCN(CCO)CCCOc1ccc2c(Nc3cc(CC(=O)Nc4cccc(F)c4)[nH]n3)ncnc2c1 [AZD2811] (first compound max 10 µM, 7x7, partner max 1 µM)	combination Emax	0.877
C=CCn1c(=O)c2cnc(Nc3ccc(N4CCN(C)CC4)cc3)nc2n1-c1cccc(C(C)(C)O)n1 [AZD1775] + CCc1c2c(nc3ccc(O)cc13)-c1cc3c(c(=O)n1C2)COC(=O)[C@]3(O)CC [SN-38] (first compound max 1 µM, partner max 0.3 µM)	combination Emax	0.748

We now examine a further compound.
Quick check: combination Emax on NCI-H69 (Small Cell Lung Carcinoma), item N#Cc1cnc(Nc2cc(NC[C@H]3CNCCO3)c(C(F)(F)F)cn2)cn1 [SRA737] + O=c1[nH]cc(F)c(=O)[nH]1 [5-Fluorouracil] (first compound max 10 µM, 7x7, partner max 20 µM) ?
0.152

###

Bliss excess: recorded values
# System: NCI-H28 (Mesothelioma);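 also: after 72 h of two-drug dosing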
# Procedure details: Bliss excess, mean over the matrix (fraction); higher = more synergy
Just the number, please, no unit after it.

// worked examples, Bliss excess included
Molecule	Data value
O=C(c1cc(Cc2n[nH]c(=O)c3ccccc23)ccc1F)N1CCN(C(=O)C2CC2)CC1 [Olaparib] + COc1nnc2ccc(N3CCC(c4ccc(OCCN5CCN(C)C(=O)[C@H]5C)cc4)CC3)nn12 [AZD5153] (first compound max 10 µM, 7x7, partner max 1 µM)	-0.0529
CN(CCO)CC[C@H](CSc1ccccc1)Nc1ccc(S(=O)(=O)NC(=O)c2ccc(N3CCC([C@@H](O)c4ccccc4-c4ccc(Cl)cc4)CC3)cc2)cc1S(=O)(=O)C(F)(F)F [AZD4320] + CN(C)CCCOc1ccc(-c2ccc3ncc4c(c3c2)n(C2CCOCC2)c(=O)n4C)cn1 [AZD0156] (first compound max 1 µM, 7x7, partner max 1 µM)	-0.0693

We now examine a further molecule.
Given Cn1cnc2c(F)c(Nc3ccc(Br)cc3Cl)c(C(=O)NOCCO)cc21 [Selumetinib] + C=CCn1c(=O)c2cnc(Nc3ccc(N4CCN(C)CC4)cc3)nc2n1-c1cccc(C(C)(C)O)n1 [AZD1775] (first compound max 10 µM, partner max 1 µM) , state its recorded Bliss excess.
-0.0376

###

combination Emax: recorded values
# System: KYSE-410 (Esophageal Squamous Cell Carcinoma)
# Procedure details: combination Emax (second highest fraction inhibited in the dose matrix, 72 h); higher = more inhibition; extreme values may be limits of the assay
Just the number, please, no unit after it.

// worked examples, combination Emax included
Molecule	combination Emax
CN(C)CCCOc1ccc(-c2ccc3ncc4c(c3c2)n(C2CCOCC2)c(=O)n4C)cn1 [AZD0156] + C[C@@H]1COCCN1C2=NC(=NC(=C2)C3(CC3)[S@](=N)(=O)C)C4=C5C=CNC5=NC=C4 [AZD6738] (first compound max 1 µM, 7x7, partner max 10 µM)	0.297
Cn1cnc2c(F)c(Nc3ccc(Br)cc3Cl)c(C(=O)NOCCO)cc21 [Selumetinib] + C=CCn1c(=O)c2cnc(Nc3ccc(N4CCN(C)CC4)cc3)nc2n1-c1cccc(C(C)(C)O)n1 [AZD1775] (first compound max 10 µM, partner max 1 µM)	0.431
C[C@@H](c1ccc2nccn2c1)n1nnc2ncc(-c3cnn(C)c3)nc21 [Savolitinib] + CN(CC[C@H](CSC1=CC=CC=C1)NC2=C(C=C(C=C2)S(=O)(=O)NC(=O)C3=CC=C(C=C3)N4CCC(CC4)[C@H](C5=CC=CC=C5C6=CC=C(C=C6)Cl)O)S(=O)(=O)C(F)(F)F)CCO [AZD4320] (first compound max 1 µM, 7x7, partner max 1 µM)	0.174
COc1nnc2ccc(N3CCC(c4ccc(OCCN5CCN(C)C(=O)[C@H]5C)cc4)CC3)nn12 [AZD5153] + Cc1c2c(nn1C)CSCc1cc(n(C)n1)CSc1cc(c3ccccc3c1)OCCCc1c(C(=O)O)n(C)c3c-2c(Cl)ccc13 [AZD5991] (first compound max 1 µM, 7x7, partner max 1 µM)	0.348

Given Cc1cc2ncnn2cc1Nc1ncc2c(n1)n(C1CCOCC1)c(=O)n2C [AZD7648] + CN(C)CCCOc1ccc(-c2ccc3ncc4c(c3c2)n(C2CCOCC2)c(=O)n4C)cn1 [AZD0156] (first compound max 10 µM, 7x7, partner max 1 µM) , state its recorded combination Emax.
0.178

Given CC(=O)c1c(C)c2cnc(Nc3ccc(N4CCNCC4)cn3)nc2n(C2CCCC2)c1=O [Palbociclib] + Cn1cnc2c(F)c(Nc3ccc(Br)cc3Cl)c(C(=O)NOCCO)cc21 [Selumetinib] (first compound max 10 µM, 7x7, partner max 10 µM) , state its recorded combination Emax.
0.261

Given NC1(C(=O)N[C@@H](CCO)c2ccc(Cl)cc2)CCN(c2ncnc3[nH]ccc23)CC1 [Capivasertib] + Cn1cnc2c(F)c(Nc3ccc(Br)cc3Cl)c(C(=O)NOCCO)cc21 [Selumetinib] (first compound max 10 µM, 7x7, partner max 10 µM) , state its recorded combination Emax.
0.532
